The measured values listed here are drawn from PubChem BioAssay (NCI).

System: UO-31 renal
assay: NCI-60 one-dose screen, 48 h (100 = growth as untreated, 0 = no growth, -100 = all killed)
conditionDetails: 10 µM unless noted
Compounds without any hit were thinned out: in the full panel of roughly 83,000, 20% have a hit.
endpointName: growth (%)
Numbers only, in %.

> print(dat)
                                 chemsmiles  measurementunit  reportedresult
1  Cc1ccc(Cn2cc(COc3ccc4c5ccnc(C)c5n(CCCc5ccccc5)c4c3)nn2)cc1                %            55.7
2  CCN1CCN(Cc2ccc(NC(=O)Nc3cccc(-n4ccc5c(NC(=O)c6ccccc6)nccc54)c3)cc2C(F)(F)F)CC1                %            72.3
3          CSc1ccc(C(=O)C[n+]2cccc(C)c2)cc1                %            97.4
4  O=C(Nc1ccc(-n2ccc3c(NC(=O)c4ccccc4)nccc32)cc1)c1cccc(C(F)(F)F)c1                %            23.7
5                O=C(Nc1ccccc1F)Nc1ccccc1Cl                %            98.2

State recorded growth for all listed compounds.
1. Cc1ccc(/C=C2/C(=O)Nc3cc(Cl)c(-c4csc(N)n4)cc32)cc1
2. COC(=O)/C=C/C(=O)c1cc(C)cc(C)c1O
3. COc1cc(/C=C/C(=O)N2CCC=CC2=O)cc(OC)c1OC
4. O=[N+]([O-])c1cccc(C2c3ccccc3Oc3ccccc32)c1
5. CN1CCN(Cn2nc(-c3cc(F)c(Cl)cc3Cl)n(/N=C/c3ccc(N(C)C)cc3)c2=S)CC1

Solution:
[67.4, 88, 57.7, 70.7, 55.5]
